Property: CC50; scope: individual compounds
Tested on: HEL cells
Assay: Cytotoxicity in mock-infected HEL cells (MTS)
Assay type: cell-based, human
Conditions: mock-infected HEL cells, MTS, mean of 2–3 tests

Worked examples follow.
{"compound": "CCCCCCCCOC1C(OC)OC(COCCOCCOCCOCCOCc2cn(C3C(=O)NC4Cc5ccc(c(Cl)c5)Oc5cc6cc(c5O)Oc5ccc(cc5Cl)C(OC5OC(CO)C(O)C(O)C5NC(C)=O)C5NC(=O)C(NC(=O)C6NC(=O)C(NC4=O)c4cc(O)cc(c4)Oc4cc3ccc4O)c3ccc(O)c(c3)-c3c(O)cc(O)cc3C(C(=O)O)NC5=O)nn2)C(O)C1OCCCCCCCC (stereo not drawn) [Compound 1]", "CC50": "> 100 µM"}
{"compound": "CC(=O)N[C@H]1[C@H](O[C@@H]2c3ccc(c(Cl)c3)Oc3cc4cc(c3O)Oc3ccc(cc3Cl)C[C@H]3NC(=O)[C@H](n5cc(COCCCC(F)(F)C(F)(F)C(F)(F)C(F)(F)C(F)(F)C(F)(F)F)nn5)c5ccc(O)c(c5)Oc5cc(O)cc(c5)[C@H](NC3=O)C(=O)N[C@H]4C(=O)N[C@H]3C(=O)N[C@@H]2C(=O)N[C@H](C(=O)O)c2cc(O)cc(O)c2-c2cc3ccc2O)O[C@H](CO)[C@@H](O)[C@@H]1O [Compound 4]", "CC50": "> 100 µM"}

Next compound, CC50 to be filled in.
Identify CC50 associated with the compound CC(=O)N[C@H]1[C@H](O[C@@H]2c3ccc(c(Cl)c3)Oc3cc4cc(c3O)Oc3ccc(cc3Cl)C[C@H]3NC(=O)[C@H](n5cc(COCCOCCCC(F)(F)C(F)(F)C(F)(F)C(F)(F)F)nn5)c5ccc(O)c(c5)Oc5cc(O)cc(c5)[C@H](NC3=O)C(=O)N[C@H]4C(=O)N[C@H]3C(=O)N[C@@H]2C(=O)N[C@H](C(=O)O)c2cc(O)cc(O)c2-c2cc3ccc2O)O[C@H](CO)[C@@H](O)[C@@H]1O [Compound 2]
> 100 µM

###

Assay: Cytotoxicity in mock-infected VeroE6 cells (XTT)
Type: cell-based, African green monkey
Details: African green monkey; mock-infected Vero E6 cells, three days, XTT
CC50 values, listed per item

Check out these entries, answers already filled in.
{"compound": "CCC(CC)COC(=O)[C@H](C)N[P@](=O)(OC[C@H]1O[C@@](C#N)(c2ccc3c(N)ncnn23)[C@H](O)[C@@H]1O)Oc1ccccc1 [Remdesivir, remdesivir, reference compound]", "quantity-measured": "CC50", "result": "> 100 µM"}
{"compound": "OCCCC(F)(F)C(F)(F)C(F)(F)C(F)(F)C(F)(F)C(F)(F)F", "quantity-measured": "CC50", "result": "> 100 µM"}
{"compound": "OCCCC(F)(F)C(F)(F)C(F)(F)C(F)(F)C(F)(F)C(F)(F)C(F)(F)C(F)(F)F", "quantity-measured": "CC50", "result": "> 100 µM"}

Indicate its recorded CC50; the compound in question is "O=C(O)CCC(F)(F)C(F)(F)C(F)(F)C(F)(F)C(F)(F)C(F)(F)C(F)(F)C(F)(F)F"
39 µM

###

Measured MIC, listed per entry for reference.
Tested on: S. aureus
Test: MIC, broth microdilution
Format: cell-based
Settings: Staphylococcus aureus, MRSA, read-out: Average MIC value, S. aureus MRSA, 7 strains
# unit: µg/mL | format: bare number

Consider the reported MIC for these compounds:
{"compound": "CC(=O)N[C@H]1[C@H](O[C@@H]2c3ccc(c(Cl)c3)Oc3cc4cc(c3O)Oc3ccc(cc3Cl)C[C@H]3NC(=O)[C@H](NC(=O)c5cc(OCCCSCCNC(=N)N)c(OCCCSCCNC(=N)N)c(OCCCSCCNC(=N)N)c5)c5ccc(O)c(c5)Oc5cc(O)cc(c5)[C@H](NC3=O)C(=O)N[C@H]4C(=O)N[C@H]3C(=O)N[C@@H]2C(=O)N[C@H](C(=O)O)c2cc(O)cc(O)c2-c2cc3ccc2O)O[C@H](CO)[C@@H](O)[C@@H]1O [Compound 7]", "quantity-measured": "MIC", "measured-number": 0.89}
{"compound": "CN[C@H](CC(C)C)C(=O)N[C@H]1C(=O)N[C@@H](CC(N)=O)C(=O)N[C@H]2C(=O)N[C@H]3C(=O)N[C@H](C(=O)N[C@H](C(=O)O)c4cc(O)cc(O)c4-c4cc3ccc4O)[C@H](O)c3ccc(c(Cl)c3)Oc3cc2cc(c3O[C@@H]2O[C@H](CO)[C@@H](O)[C@H](O)[C@H]2O[C@H]2C[C@](C)(N)[C@H](O)[C@H](C)O2)Oc2ccc(cc2Cl)[C@H]1O [VAN, vancomycin, reference compound]", "quantity-measured": "MIC", "measured-number": 1.25}

Give S. aureus MIC for the following compound: CC(=O)N[C@H]1[C@H](O[C@@H]2c3ccc(c(Cl)c3)Oc3cc4cc(c3O)Oc3ccc(cc3Cl)C[C@H]3NC(=O)[C@H](n5cc(COCCOCCCC(F)(F)C(F)(F)C(F)(F)C(F)(F)F)nn5)c5ccc(O)c(c5)Oc5cc(O)cc(c5)[C@H](NC3=O)C(=O)N[C@H]4C(=O)N[C@H]3C(=O)N[C@@H]2C(=O)N[C@H](C(=O)O)c2cc(O)cc(O)c2-c2cc3ccc2O)O[C@H](CO)[C@@H](O)[C@@H]1O [Compound 2]
0.285

Provenance of the data: paper PMC9511441
